tested on: Rattus norvegicus; assay: Anti-inflammatory activity in Sprague-Dawley rat assessed as inhibition of LPS-induced neutrophilia at 300 ug/kg, it administered as suspension with Penn-Century micro-sprayer aerosolizer dosed 18 hrs before LPS challenge and measured 22 hrs post dose; format: functional; conditions: inhaled or nasal
inhibition in vivo at 0.3 mg/kg listing for selected molecules.
Expressed in %, but write only the number.

>  <chemical-structure>
CCNC(=O)c1cc(C(=O)NCCCN(C)C)cc(-c2cccc(-c3cc(NC(=O)Nc4c(Cl)cncc4Cl)c(=O)n(CC)n3)c2)c1

>  <inhibition in vivo at 0.3 mg/kg (%)>
60

$$$$
>  <chemical-structure>
CCn1nc(-c2cccc(-c3cc(C(=O)NCCCN(C)C)cc(C(=O)OC)c3)c2)cc(NC(=O)Nc2c(Cl)cncc2Cl)c1=O

>  <inhibition in vivo at 0.3 mg/kg (%)>
26

$$$$
>  <chemical-structure>
CCn1nc(-c2cccc(-c3ccc(CC(=O)NCCN4CCCCC4)cc3)c2)cc(NC(=O)Nc2c(Cl)cncc2Cl)c1=O

>  <inhibition in vivo at 0.3 mg/kg (%)>
47

$$$$

Need inhibition in vivo at 0.3 mg/kg of `CCn1nc(-c2cccc(-c3cc(C(=O)NC4CC4)cc(C(=O)NC4CC4)c3)c2)cc(NC(=O)Nc2c(Cl)cncc2Cl)c1=O` , thanks.
27

Same thing, different molecule: `CCn1nc(-c2cccc(-c3cc(C(=O)NC4CC4)cc(C(=O)NC4CCN(Cc5ccccc5)CC4)c3)c2)cc(NC(=O)Nc2c(Cl)cncc2Cl)c1=O`
60
